Data provenance: the supplement of paper PMC10126150

System: ATP;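 note: ATP exposure 15 min at 22 °C before imaging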
Assay summary: switch fluorescence ratio, 500 uM ATP over buffer (Cy3 cluster intensity, sum of 5 cycles each) (fold (ratio)); higher = stronger signal-on switching upon ATP binding; sequences stand for … in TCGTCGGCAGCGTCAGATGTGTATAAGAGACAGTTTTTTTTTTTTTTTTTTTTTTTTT…TC
Assay conditions: aptamer strand: ATP DNA aptamer (quencher-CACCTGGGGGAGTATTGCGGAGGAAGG + anchor), 100 nM annealed; ATP concentration: 500 uM
Value kind: switch fluorescence ratio
Numbers only.

Consider the reported switch fluorescence ratio for these sequences:
Residue string	Study system	switch fluorescence ratio
GCATGTGTTC	ATP	0.995
TTTTAAATCT	ATP	1.03
AATAAAGAGT	ATP	0.974

Lab note: each sequence below needs its switch fluorescence ratio filled in.
1. TATGGCATCT
2. AGGGACGGTG

-- reply
1
1

====

Please provide measured switch fluorescence ratio for the entries that follow.
System: ATP;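 note: ATP exposure 15 min at 22 °C before imaging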
Assay summary: switch fluorescence ratio, 500 uM ATP over buffer (Cy3 cluster intensity, sum of 5 cycles each) (fold (ratio)); higher = stronger signal-on switching upon ATP binding; sequences stand for … in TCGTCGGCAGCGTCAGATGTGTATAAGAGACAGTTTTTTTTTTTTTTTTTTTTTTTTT…TC
Assay conditions: aptamer strand: ATP DNA aptamer (quencher-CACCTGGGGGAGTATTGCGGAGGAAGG + anchor), 100 nM annealed; ATP concentration: 500 uM
Give bare numbers.

Lab note: each sequence below needs its switch fluorescence ratio filled in.
1. TTGCCATTGG
2. CGATTTAGAG
3. GGGTTATTAT
4. TCTTGGGGCA
5. GGGTTTTATG

-- reply
1: 0.99; 2: 0.988; 3: 1.01; 4: 1.01; 5: 0.991

====

Please provide measured switch fluorescence ratio for the entries that follow.
Test system: ATP;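 note: ATP exposure 15 min at 22 °C before imaging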
Assay summary: switch fluorescence ratio, 500 uM ATP over buffer (Cy3 cluster intensity, sum of 5 cycles each) (fold (ratio)); higher = stronger signal-on switching upon ATP binding; sequences stand for … in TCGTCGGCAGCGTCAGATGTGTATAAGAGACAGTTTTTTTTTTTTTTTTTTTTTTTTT…TC
Assay conditions: aptamer strand: ATP DNA aptamer (quencher-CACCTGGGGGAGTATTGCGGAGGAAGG + anchor), 100 nM annealed; ATP concentration: 500 uM
Numbers only.

Consider the reported switch fluorescence ratio for these sequences:
Residue string	Study system	switch fluorescence ratio
GCTCGTTTTG	ATP	0.981
CTTGGCATCT	ATP	1.01
CGGGTGGGTA	ATP	1
ATAGATTCTC	ATP	0.977
CCTTATTAGG	ATP	1

Lab note: each sequence below needs its switch fluorescence ratio filled in.
1. GAGGTTCTAT
2. TATTGGGGGG
3. TGTTGTTATT

-- reply
[1, 0.999, 1.02]

Lab note: each sequence below needs its switch fluorescence ratio filled in.
1. GGGATTACCA
2. TAGTTGGTCT
3. TAGCTTTTAT
4. CAATTTAGCG
5. TATTTTGTAT
6. CTGTCGTGTC
7. GTGGGGAGTT

-- reply
[1, 0.974, 0.996, 1.02, 1, 0.993, 0.99]

Lab note: each sequence below needs its switch fluorescence ratio filled in.
1. ACGGGCTTAG
2. CTGTTTGTTG

-- reply
[1.01, 0.971]

Lab note: each sequence below needs its switch fluorescence ratio filled in.
1. TTTGTGAGGG
2. GGGGGTTCAA
3. AAGGGGGGGC

-- reply
[0.982, 0.983, 0.998]

====

System: ATP;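 note: ATP exposure 15 min at 22 °C before imaging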
Assay summary: switch fluorescence ratio, 500 uM ATP over buffer (Cy3 cluster intensity, sum of 5 cycles each) (fold (ratio)); higher = stronger signal-on switching upon ATP binding; sequences stand for … in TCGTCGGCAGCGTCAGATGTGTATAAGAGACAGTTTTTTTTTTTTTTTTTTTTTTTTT…TC
Assay conditions: aptamer strand: ATP DNA aptamer (quencher-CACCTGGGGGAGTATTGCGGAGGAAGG + anchor), 100 nM annealed; ATP concentration: 500 uM
Please provide measured switch fluorescence ratio for the entries that follow.
Give bare numbers.

Consider the reported switch fluorescence ratio for these sequences:
Residue string	Study system	Assay result
AGTGGTTGTA	ATP	0.997
ATAAAAAATA	ATP	1

Lab note: each sequence below needs its switch fluorescence ratio filled in.
1. GCTAGTGGC
2. AGAGCTTGAT
3. GGGATTAGCA
4. GCCGTGCGGG
5. CGGGATGATT
6. TTATCTGATT

-- reply
0.985
1
0.988
0.978
0.998
0.995

Lab note: each sequence below needs its switch fluorescence ratio filled in.
1. CTTGGGGCGC
2. AGATTGGGGT
3. GGGTCTGCAC
4. GACCTAAGGT
5. TTAGAGACAG

-- reply
[1.01, 1.01, 0.997, 0.988, 0.985]

Lab note: each sequence below needs its switch fluorescence ratio filled in.
1. TTTATTGA
2. TTGGGGAACC

-- reply
0.989
0.987

Lab note: each sequence below needs its switch fluorescence ratio filled in.
1. ATTTGTTATC
2. GCTCTAGTGG
3. CTGGAATGGG
4. GCGCGGCTGG

-- reply
0.981
1.01
1.02
1.02

Lab note: each sequence below needs its switch fluorescence ratio filled in.
1. ATTTGAATGG
2. TGGGGGACTC
3. GTTTGAGGGG
4. TAAGTTATGG
5. AAATAGACCG
6. GGGCCTCGGT
7. CGCGTGATTT
8. TATAAATTTT

-- reply
[0.987, 0.988, 0.992, 0.997, 1, 0.991, 1.06, 0.992]

Lab note: each sequence below needs its switch fluorescence ratio filled in.
1. GGCCGGTGTA
2. GGTGCCAAGT
3. TAATTATAGT
4. TTTAATGGGG
5. CGTGGGACTC
6. TACAACTTTC
7. GTTGTGATTT

-- reply
[1.03, 1, 1.01, 1.02, 1.14, 1.08, 0.953]

Lab note: each sequence below needs its switch fluorescence ratio filled in.
1. AATATGAGGG
2. GGGTTAAAGA
3. TCTACTTTAC
4. AGGCGGATTT
5. TAAGTGGTCG

-- reply
1. 1.01
2. 1
3. 1.39
4. 1
5. 1.03

====

Test system: ATP;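 note: ATP exposure 15 min at 22 °C before imaging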
Assay summary: switch fluorescence ratio, 500 uM ATP over buffer (Cy3 cluster intensity, sum of 5 cycles each) (fold (ratio)); higher = stronger signal-on switching upon ATP binding; sequences stand for … in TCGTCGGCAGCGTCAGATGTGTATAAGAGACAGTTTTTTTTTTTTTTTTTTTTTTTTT…TC
Assay conditions: aptamer strand: ATP DNA aptamer (quencher-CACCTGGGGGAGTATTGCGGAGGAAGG + anchor), 100 nM annealed; ATP concentration: 500 uM
Please provide measured switch fluorescence ratio for the entries that follow.
Give bare numbers.

Consider the reported switch fluorescence ratio for these sequences:
Residue string	Value kind	Assay result
GCCAGCATGG	switch fluorescence ratio	1
AGGGTGTTTT	switch fluorescence ratio	1.01

Now for a further sequence.
-- ask Entry under review: TTTTTATCGG . Reported switch fluorescence ratio?
-- reply 1.01

====

Tested on: ATP;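 note: ATP exposure 15 min at 22 °C before imaging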
Assay summary: switch fluorescence ratio, 500 uM ATP over buffer (Cy3 cluster intensity, sum of 5 cycles each) (fold (ratio)); higher = stronger signal-on switching upon ATP binding; sequences stand for … in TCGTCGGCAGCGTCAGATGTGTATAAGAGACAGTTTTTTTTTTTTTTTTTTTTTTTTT…TC
Assay conditions: aptamer strand: ATP DNA aptamer (quencher-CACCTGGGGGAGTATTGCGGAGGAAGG + anchor), 100 nM annealed; ATP concentration: 500 uM
Please provide measured switch fluorescence ratio for the entries that follow.
Answers are plain numbers.

Consider the reported switch fluorescence ratio for these sequences:
Residue string	Value kind	Assay result
AAGGCGGCGG	switch fluorescence ratio	0.991
ATGGAAAATG	switch fluorescence ratio	1.04

Lab note: each sequence below needs its switch fluorescence ratio filled in.
1. TCTGCACATT
2. GATTTTGTTT
3. ACTCTTTTAC
4. AATCAGCCTC
5. TTTTAAAATT
6. AGGTTGGGCA
7. CAGCTTGGGT
8. GGGACACGGT

-- reply
1. 1.07
2. 0.996
3. 1.29
4. 1.01
5. 1
6. 0.984
7. 0.999
8. 0.987

Lab note: each sequence below needs its switch fluorescence ratio filled in.
1. GCAGGAAGGG
2. ATGCGAGCGG

-- reply
1: 0.977; 2: 0.985

Lab note: each sequence below needs its switch fluorescence ratio filled in.
1. TATAAGCGGA
2. AAAATAGAAC

-- reply
0.993
1.01

Lab note: each sequence below needs its switch fluorescence ratio filled in.
1. TGGTTTGATT
2. ATTGTTTAGC
3. TAATCGGGGT

-- reply
1
1.01
0.978
